- Protocol description: Pharmacokinetics, plasma and total colon tissue distribution in rats
- Assay type: in vivo, male Wistar rats
- Condition: male, Wistar, plasma; Rat, intravenous 0.25 mg/kg
Assay metric: half-life (min)

                                     smiles  reported
0  C#Cc1cc(Nc2nccc(Oc3ccc(NC(=O)Nc4cc(C(C)(C)C)nn4-c4ccc(OC)cc4)c4ccccc34)n2)cc(C(=O)NCCN2CCOCC2)c1        48

----------
- Protocol description: Plasma pharmacokinetics in beagle dogs
- Assay type: in vivo, male beagle dogs
- Condition: male, beagle, plasma; Dog, intravenous 0.05 mg/kg
Assay metric: half-life (h)

                                   compound  readout_unit  reported
0  C#Cc1cc(Nc2nccc(Oc3ccc(NC(=O)Nc4cc(C(C)(C)C)nn4-c4ccc(OC)cc4)c4ccccc34)n2)cc(C(=O)NCCN2CCOCC2)c1 [Example 77]             h       2.5

----------
- Study target: UniProtKB P49840
- Sequence (P49840 whole entry): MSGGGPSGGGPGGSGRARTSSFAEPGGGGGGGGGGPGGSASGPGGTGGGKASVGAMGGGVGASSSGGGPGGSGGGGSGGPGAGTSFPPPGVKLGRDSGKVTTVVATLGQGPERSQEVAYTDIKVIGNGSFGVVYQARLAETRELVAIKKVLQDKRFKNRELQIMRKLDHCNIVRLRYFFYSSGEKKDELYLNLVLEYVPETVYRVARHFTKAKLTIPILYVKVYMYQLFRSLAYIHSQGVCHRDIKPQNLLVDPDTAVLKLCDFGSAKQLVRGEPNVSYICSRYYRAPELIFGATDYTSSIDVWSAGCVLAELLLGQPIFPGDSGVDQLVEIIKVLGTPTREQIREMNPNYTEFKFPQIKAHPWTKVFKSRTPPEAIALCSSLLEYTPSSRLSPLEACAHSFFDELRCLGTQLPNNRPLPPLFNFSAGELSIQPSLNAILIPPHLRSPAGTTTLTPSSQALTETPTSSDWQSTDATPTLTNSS
- Protocol description: GSK 3α enzyme inhibition (FRET, Z-LYTE), Method 1
- Format: biochemical
- Condition: Method 1 (Table 4a1); read-out: IC50 Values for Enzyme Inhibition GSK3α
Assay metric: IC50 (µM)

In [3]: df
Out[3]:
                                     smiles      study_target  assay_metric  readout_unit  reported
0  COc1cc(Nc2nccc(Oc3ccc(NC(=O)Nc4cc(C(C)C)nn4-c4ccc(C)cc4)c4ccccc34)n2)cc(C(=O)NCCO)c1  UniProtKB P49840          IC50            µM        13

----------
- Protocol description: Pharmacokinetics, plasma and total colon tissue distribution in rats
- Assay type: in vivo, male Wistar rats
- Condition: male, Wistar, po; Rat, 5 mg/kg p.o., Plasma
Assay metric: AUC(0-inf) (ng·h/mL)

In [3]: df
Out[3]:
                                     smiles  assay_metric  readout_unit  reported
0  C#Cc1cc(Nc2nccc(Oc3ccc(NC(=O)Nc4cc(C(C)(C)C)nn4-c4ccc(OC)cc4)c4ccccc34)n2)cc(C(=O)NCCN2CCOCC2)c1    AUC(0-inf)       ng·h/mL      17.5

----------
- Study target: p38 MAPKα isoform (MAPK14) (Homo sapiens (Human))
- Protocol description: p38 MAPKα enzyme inhibition (FRET, Z-LYTE), Method 1
- Type: biochemical
- Condition: Method 1 (Table 4a1)
- Experimental: The enzyme inhibitory activities of compounds disclosed herein are determined by FRET using synthetic peptides labelled with both donor and acceptor fluorophores (Z-LYTE, Invitrogen Ltd., Paisley, UK). The inhibitory activities of test compounds against the p38 MAPKα isoform (MAPK14: Invitrogen), are evaluated indirectly by determining the level of activation/phosphorylation of the down-stream molecule, MAPKAP-K2. […]
Label y when IC50 is strictly below 10 nM; at or above that, label n.

Compound	Class assignment
Cc1ccc(-n2nc(C(C)(C)C)cc2NC(=O)Nc2ccc(Oc3ccnc(Nc4cccc(C(N)=O)c4)n3)c3ccccc23)cc1 [Example 2]	n
COc1cc(C(=O)NCCN(C)C)ccc1Nc1nccc(Oc2ccc(NC(=O)Nc3cc(C(C)C)nn3-c3ccc(C)cc3)c3ccccc23)n1 [Example 35]	y
COc1cc(Nc2nccc(Oc3ccc(NC(=O)Nc4cc(C5(C)CC5)nn4-c4ccc(C)cc4)c4ccccc34)n2)cc(C(=O)NCCN2CCOCC2)c1 [Example 51]	n
COc1ccc(C(=O)NCCN(C)C)cc1Nc1nccc(Oc2ccc(NC(=O)Nc3cc(C(C)C)nn3-c3ccc(C)cc3)c3ccccc23)n1 [Example 28]	y
COc1ccc(C(=O)NCCO)cc1Nc1nccc(Oc2ccc(NC(=O)Nc3cc(C(C)C)nn3-c3ccc(C)cc3)c3ccccc23)n1 [Example 32]	y
COc1ccc(C(=O)NCCO)cc1Nc1nccc(Oc2ccc(NC(=O)Nc3cc(C(C)(C)C)nn3-c3ccc(C)cc3)c3ccccc23)n1 [Example 33]	y
COc1ccc(-n2nc(C(C)C)cc2NC(=O)Nc2ccc(Oc3ccnc(Nc4cc(Cl)cc(C(=O)NCCN5CCOCC5)c4)n3)c3ccccc23)cc1 [Example 61]	n
COc1ccc(-n2nc(C3(C)COC3)cc2NC(=O)Nc2ccc(Oc3ccnc(Nc4cccc(C(=O)NCCN5CCOCC5)c4)n3)c3ccccc23)cc1 [Example 23]	y
COc1cc(C(=O)NCCO)ccc1Nc1nccc(Oc2ccc(NC(=O)Nc3cc(C(C)(C)C)nn3-c3ccc(C)cc3)c3ccccc23)n1 [Example 4]	n
COc1ccc(-n2nc(C3CCCO3)cc2NC(=O)Nc2ccc(Oc3ccnc(Nc4cc(OC)cc(C(=O)NCCN5CCOCC5)c4)n3)c3ccccc23)cc1 (stereo not drawn) [Example 58]	y
COc1ccc(-n2nc(C(C)(C)C)cc2NC(=O)Nc2ccc(Oc3ccnc(Nc4cc(OC)cc(C(N)=O)c4)n3)c3ccccc23)cc1 [Example 41]	n

----------
- Study target: p38 MAPKα isoform (MAPK14) (Homo sapiens (Human))
- Protocol description: p38 MAPKα enzyme inhibition (FRET, Z-LYTE), Method 2
- Type: biochemical
- Condition: Method 2, different laboratory (Table 4a2)
pIC50: −log10 of the molar value.
Note to self: values exactly at 7 are true (1). So pIC50 at or above 7 is true (1), below is false (0).

In [3]: df
Out[3]:
                                   compound  class_assignment
0  C#Cc1cc(Nc2nccc(Oc3ccc(NC(=O)Nc4cc(C(F)(F)C(F)(F)F)nn4-c4ccc(C)cc4)c4ccccc34)n2)cc(C(=O)NCCN2CCOCC2)c1 [Example 74]         false (0)
1  COc1cc(Nc2nccc(Oc3ccc(NC(=O)Nc4cc(C(C)C)nn4-c4ccc(C)cc4)c4ccccc34)n2)cc(C(=O)NCCN2CCOCC2)c1 [Example 8]          true (1)
2  COc1cc(Nc2cc(Oc3ccc(NC(=O)Nc4cc(C(C)(C)C)nn4-c4ccc(C)cc4)c4ccccc34)ccn2)cc(C(=O)NCCN2CCOCC2)c1 [Example 1]          true (1)
3  C#Cc1cc(Nc2nccc(Oc3ccc(NC(=O)Nc4cc(C(C)(C)C)nn4-c4ccc(OC)nc4)c4ccccc34)n2)cc(C(=O)NCCN2CCOCC2)c1 [Example 73]          true (1)
4  C#Cc1cc(Nc2nccc(Oc3ccc(NC(=O)Nc4cc(C(C)(C)C)nn4-c4ccc(C)cc4)c4ccccc34)n2)cc(C(=O)NCCN2CCOCC2)c1 [Example 75]          true (1)

----------
- Protocol description: Plasma pharmacokinetics in beagle dogs
- Format: in vivo, male beagle dogs
- Condition: male, beagle, plasma; Dog, intravenous 0.05 mg/kg
Assay metric: AUC(0-inf) (ng·h/mL)

In [3]: df
Out[3]:
                                   compound  assay_metric  reported
0  C#Cc1cc(Nc2nccc(Oc3ccc(NC(=O)Nc4cc(C(C)(C)C)nn4-c4ccc(OC)cc4)c4ccccc34)n2)cc(C(=O)NCCN2CCOCC2)c1 [Example 77]    AUC(0-inf)        37

----------
- Protocol description: Pharmacokinetics, plasma and total colon tissue distribution in rats
- Type: in vivo, male Wistar rats
- Condition: male, Wistar, po; Rat, 5 mg/kg p.o., Plasma
Assay metric: AUC(0-t) (ng·h/mL)

>>> print(df.to_string())
                                   molecule  reported
0  C#Cc1cc(Nc2nccc(Oc3ccc(NC(=O)Nc4cc(C(C)(C)C)nn4-c4ccc(OC)cc4)c4ccccc34)n2)cc(C(=O)NCCN2CCOCC2)c1 [Example 77]      17.5

----------
- Protocol description: Pharmacokinetics, plasma and total colon tissue distribution in rats
- Assay type: in vivo, male Wistar rats
- Condition: male, Wistar, po; Rat, 5 mg/kg p.o., Plasma
Assay metric: Cmax (ng/mL)

                                   compound  assay_metric  reported
0  C#Cc1cc(Nc2nccc(Oc3ccc(NC(=O)Nc4cc(C(C)(C)C)nn4-c4ccc(OC)cc4)c4ccccc34)n2)cc(C(=O)NCCN2CCOCC2)c1 [Example 77]          Cmax       2.5

----------
- Study target: p38 MAPKα isoform (MAPK14) (Homo sapiens (Human), UniProt Q16539)
- Sequence (Q16539 whole entry, canonical isoform): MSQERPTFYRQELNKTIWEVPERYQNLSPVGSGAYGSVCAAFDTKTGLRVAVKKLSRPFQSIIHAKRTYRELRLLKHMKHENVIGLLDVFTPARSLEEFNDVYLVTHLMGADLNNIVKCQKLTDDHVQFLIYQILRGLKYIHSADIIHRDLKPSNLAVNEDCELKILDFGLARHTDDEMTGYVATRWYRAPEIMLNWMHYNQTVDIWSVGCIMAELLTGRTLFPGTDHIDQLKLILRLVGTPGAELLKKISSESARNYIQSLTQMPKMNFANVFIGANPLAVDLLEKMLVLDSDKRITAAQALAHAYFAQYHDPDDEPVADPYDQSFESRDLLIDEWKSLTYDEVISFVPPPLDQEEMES
- Protocol description: p38 MAPKα enzyme inhibition (FRET, Z-LYTE), Method 1
- Type: biochemical
- Condition: Method 1 (Table 4a1)
Each entry below carries its recorded IC50.
Assay metric: IC50 (nM)

In [3]: df
Out[3]:
                                   compound  reported
0  COc1cc(Nc2nccc(Oc3ccc(NC(=O)Nc4cc(C(C)(C)C)nn4-c4ccc(C)cc4)c4ccccc34)n2)cc(C(=O)NCCO)c1 [Example 64]         8
1  Cc1ccc(-n2nc(C(C)(C)C)cc2NC(=O)Nc2ccc(Oc3ccnc(Nc4cccc(C(=O)N(C)C)c4)n3)c3ccccc23)cc1 [Example 26]        12
2  Cc1ccc(-n2nc(C(C)(C)C)cc2NC(=O)Nc2ccc(Oc3ccnc(Nc4cccc(C(=O)NCCN5CCN(C)CC5)c4)n3)c3ccccc23)cc1 [Example 25]        13
3  COc1cc(Nc2nccc(Oc3ccc(NC(=O)Nc4cc(C(C)(C)C)nn4-c4ccc(C)cc4)c4ccccc34)n2)cc(C(=O)NCCN2CCOCC2)c1 [Example 52]        13
4  COc1ccc(-n2nc(C(C)C)cc2NC(=O)Nc2ccc(Oc3ccnc(Nc4ccc(C(=O)NCCN5CCOCC5)cc4OC)n3)c3ccccc23)cc1 [Example 38]        12
5  Cc1csc(-n2nc(C(C)(C)C)cc2NC(=O)Nc2ccc(Oc3ccnc(Nc4cccc(C(=O)NCCN5CCOCC5)c4)n3)c3ccccc23)c1 [Example 24]        11
